# System under test: Prostaglandin G/H synthase 2 (Homo sapiens, UniProt P35354)
# Sequence (P35354 whole entry): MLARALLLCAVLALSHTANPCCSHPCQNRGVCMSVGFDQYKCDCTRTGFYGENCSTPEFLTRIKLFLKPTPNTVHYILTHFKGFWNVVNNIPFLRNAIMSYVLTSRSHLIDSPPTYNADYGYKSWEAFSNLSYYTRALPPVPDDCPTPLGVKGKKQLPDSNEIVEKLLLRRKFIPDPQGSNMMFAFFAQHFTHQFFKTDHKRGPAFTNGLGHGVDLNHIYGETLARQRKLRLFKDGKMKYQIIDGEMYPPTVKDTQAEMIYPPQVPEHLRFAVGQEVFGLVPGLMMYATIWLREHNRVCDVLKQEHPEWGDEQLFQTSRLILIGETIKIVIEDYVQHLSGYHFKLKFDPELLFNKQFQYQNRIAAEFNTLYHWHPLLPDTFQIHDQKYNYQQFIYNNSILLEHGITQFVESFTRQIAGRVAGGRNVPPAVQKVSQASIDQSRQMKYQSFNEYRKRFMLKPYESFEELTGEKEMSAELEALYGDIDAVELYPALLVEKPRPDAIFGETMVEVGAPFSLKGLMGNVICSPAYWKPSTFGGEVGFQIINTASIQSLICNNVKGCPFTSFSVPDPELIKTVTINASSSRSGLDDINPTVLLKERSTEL
# Type: organism-based, Blood
# Description: In vivo ability to inhibit Prostaglandin G/H synthase 2 in human whole blood assay
Measured endpoint: IC50 (µM)

See these solved cases before continuing.
1) C=Cc1nc2sc(-c3ccc(S(C)(=O)=O)cc3)c(-c3ccccc3)n2n1
4.1
2) CS(=O)(=O)c1ccc(-c2sc3ncnn3c2-c2cccc(F)c2)cc1
4.2
3) Cc1nc2sc(-c3ccc(S(C)(=O)=O)cc3)c(-c3cccc(F)c3)n2n1
14

[1] Cc1nc2sc(-c3ccc(S(C)(=O)=O)cc3)c(-c3ccccc3)n2n1
[2] CS(=O)(=O)c1ccc(-c2sc3ncnn3c2-c2ccccc2)cc1
## Input Quick check, higher IC50 between 1 and 2 ? Could you answer with the label of the item you picked?
## Output 1
(1: 10 µM, 2: 2.3 µM)

* * *

# Procedure text: Percentage recovery after 3h incubation with rat hapatocytes was determined
# Assay type: ADME, organism-based
# Condition: hepatocytes, read-out: Recovery
Listing: remaining at 3 h of selected compounds

1) CS(=O)(=O)c1ccc(-c2sc3ncnn3c2-c2ccccc2)cc1
> 95%

## Input # input compound: "CS(=O)(=O)c1ccc(-c2c(-c3ccccc3)nc3sccn23)cc1" ; wanted: its remaining at 3 h
## Output < 10%

* * *

Record type: IC50 measurement. Applies to: Prostaglandin G/H synthase 1 (Homo sapiens, UniProt P23219)
Measured endpoint: IC50 (µM)

See these solved cases before continuing.
1) CS(=O)(=O)c1ccc(-c2sc3ncnn3c2-c2ccc(F)cc2)cc1
15
2) Cc1cccc(-c2c(-c3ccc(S(C)(=O)=O)cc3)sc3nc(C(F)(F)F)nn23)c1
0.61

[A] CS(=O)(=O)c1ccc(-c2sc3nc(C(F)(F)F)nn3c2-c2cccc(F)c2)cc1
[B] CS(=O)(=O)c1ccc(-c2c(-c3ccccc3)sc3nncn23)cc1
## Input // which entry reports the smaller IC50, A or B ? Could you answer with the label of the item you picked?
## Output B
(B: 2.1 µM, A: 8.5 µM)

* * *

# Species on record: Rattus norvegicus
# Procedure text: Plasma clearance in rat
# Format: ADME, organism-based
# Condition: in vivo
Measured endpoint: Clearance (mL/min/kg)
Expressed in mL/min/kg, but write only the number.

## Input # input molecule: "CS(=O)(=O)c1ccc(-c2sc3ncnn3c2-c2ccccc2)cc1" ; wanted: its Clearance
## Output 13

* * *

# Procedure text: Maximum concentration at 4 hr after administration of 5 mg/kg dose peroral in rat
# Type: ADME, organism-based
# Set-up: dose 5 mg/kg, route oral
# Condition: in vivo, po
Measured endpoint: Cmax (µM)
Expressed in µM, but write only the number.

## Input # input molecule: "CS(=O)(=O)c1ccc(-c2sc3ncnn3c2-c2ccccc2)cc1" ; wanted: its Cmax
## Output 7.2

* * *

# System under test: Prostaglandin G/H synthase 2 (Homo sapiens)
# Format: cell-based, CHO
# Description: Tested in vitro for the ability to inhibit Prostaglandin G/H synthase 2 in chinese hamster ovary (CHO) cells
Measured endpoint: IC50 (nM)

See these solved cases before continuing.
1. CC(C)c1nc2sc(-c3ccc(S(C)(=O)=O)cc3)c(-c3ccccc3)n2n1
11
2. Cc1nc2sc(-c3ccc(S(C)(=O)=O)cc3)c(-c3ccccc3)n2n1
20
3. CS(=O)(=O)c1ccc(-c2sc3ncnn3c2-c2ccccc2)cc1
10

[P] COc1cccc(-c2c(-c3ccc(S(C)(=O)=O)cc3)sc3ncnn23)c1
[Q] CS(=O)(=O)c1ccc(-c2sc3nc(C(F)(F)F)nn3c2-c2cccc(F)c2)cc1
[R] CS(=O)(=O)c1ccc(-c2sc3ncnn3c2-c2ccc(F)cc2)cc1
[S] CS(=O)(=O)c1ccc(-c2sc3nncn3c2-c2ccccc2)cc1
## Input Sort the compounds on IC50; start with the lowest figure. Response field: labels, in requested order.
## Output Q, R, P, S

[A] CS(=O)(=O)c1ccc(-c2c(-c3ccccc3)sc3ncnn23)cc1
[B] CS(=O)(=O)c1ccc(-c2c(-c3ccccc3)sc3nncn23)cc1
## Input Quick check, higher IC50 between A and B ? Could you answer with the label of the item you picked?
## Output B

[a] C=Cc1nc2sc(-c3ccc(S(C)(=O)=O)cc3)c(-c3ccccc3)n2n1
[b] CS(=O)(=O)c1ccc(-c2sc3ncnn3c2-c2ccc(F)c(F)c2)cc1
## Input // which entry reports the smaller IC50, a or b ? Could you answer with the label of the item you picked?
## Output a
(a: 6 nM, b: 48 nM)

[1] CS(=O)(=O)c1ccc(-c2sc3ncnn3c2-c2cccc(F)c2)cc1
[2] CS(=O)(=O)c1ccc(-c2sc3ncnn3c2-c2cc(F)cc(F)c2)cc1
[3] Cc1cccc(-c2c(-c3ccc(S(C)(=O)=O)cc3)sc3nc(C(F)(F)F)nn23)c1
[4] CCc1nc2sc(-c3ccc(S(C)(=O)=O)cc3)c(-c3ccccc3)n2n1
[5] Cc1nc2sc(-c3ccc(S(C)(=O)=O)cc3)c(-c3cccc(F)c3)n2n1
## Input List from greatest to least IC50. Response field: labels, in requested order.
## Output 5, 2, 1, 4, 3
